Test: Pharmacokinetics studies in mice
Format: in vivo, CD-1 mice
Conditions: CD-1; mouse plasma; IV 1 mg/Kg
Protocol: The test article each was dissolved in 10% DMSO and 90% of (40% HP-β-CD in deionized water) to yield concentration at 0.4 mg/mL for intravenous administration, and 1 mg/mL for oral administration. Method development and plasma samples analysis were performed by Analytical Sciences Division of the Testing Facility by means of LC-MS/MS. The analytical results were confirmed using quality control samples for intra-assay variation (within day variation). […]
Kindly supply the reported AUC(0-t) values for the records listed here.
Answers are plain numbers, in ng·h/mL.

compound	AUC(0-t), ng·h/mL
CN(C)C/C=C/C(=O)Nc1cc2c(Nc3ccc(F)c(Cl)c3)ncnc2cc1O[C@H]1CCOC1 [afatinib, reference compound]	54

Lab note: next compound to report on.
[in] Look up AUC(0-t) for this compound: CN(C)C/C=C/C(=O)Nc1cc2c(Nc3ccc(F)c(Cl)c3)ncnc2cc1OC[C@H]1[C@@H]2COC[C@@H]21 [NT112]
[out] 575
